# credit: the nanobody polyreactivity screen of Harvey et al. (2022)

experiment: yeast display, Sf9 membrane polyspecificity reagent, FACS + sequencing; frameworks hold sequencing errors
observationType: polyreactivity (PSR sort gate)

Some sequences with recorded polyreactivity (PSR sort gate):
seq | polyreactivity (PSR sort gate)
QVQLVESGGGLVQAGGSLRLSCAASGLTFRINAMGWYRQAPGKERELVAAITDSGTSTSYADSVKGRFTISRDNAKNTVYLQMKSLKPEDTAVYYCAADVRPGYYLYRSWGAYDYWGQGTQVTVSS | low polyreactivity
QVQLVESGGGLVQAGGSLRFICAASGFLFRAYTMGWYRQAPGKERELVAAITSSGGRTYYADSVKGRFSISRDNAKNTVFLQMNSLKPEDTAVYYCATVYAKWKQFDSWGQGTQVNVSS | high polyreactivity
QVQLVESGGGLVQAGGSLRLSCADSGRIFYRYAMGWYRQAPGKERELVAAITNSGGRTYYADSVKGRFTISRDNAKNTVYLQMNSVKPEDSAVYYCNAVKTSEYDYWGQGTQVTVSS | high polyreactivity
QVQLVESGGGLVQAGGSLRLSCAASGSTFFVNAMGWYRQAPGKERELVASITVSSGRTYYADSVKGRFTISRDNAKNTVYLQMNSLKPEDTAVYYCAARHLYWRREGYYWGQGTQVTVSS | high polyreactivity
QVQLVESGVGLVQAGGSLRLSCAASGSIFQYNAMGWYRQAPGKERELVAAITSTGDTNYADSVKGRFTISRDNAKNTVYLQMNSLKAEDTAVYFCAADVYGTVRRVGWYYVGEGYDYWGQGTQVTVSS | low polyreactivity
QVQLVESGGGLVQAGGSLRLSCAASGRTFVYYAMAWYRQAPGKERELVAAISRTGVNTYYADSVKGRFTISRDNAKNTVYLQMNSQKPEDTAVYYCNKVYRADRSSVPYEYWGQGTQVTVSS | high polyreactivity
QVQLVESGGGLVQAGGSLRLSCAASGFIFVFYDMGWYRQAPGKERELVAGITRNDGSTYYADSVKGRFKISRDNAKNTVYLQMNSLKPEDTAVYYCAAESAGSYLDYYWAYGYWGQGTQVTVSS | low polyreactivity
QVQLVESGGGLVQAGGSLRLSCAASGRTFIPYGMGWYRQAPGKERELVAAIRDGGSTNYADSVKGRFTISRDNAKNTVYLQMNSLKPADTAVYYCNADLPVYVDYINGGYGYWGQGTQVTVSS | low polyreactivity
QVQLVESGGGLVQAGGSLRLSCAASGSTFIYYAMGWYRKAPGKEREFVAAISYRGGSTYYADSVKGRFTISRDNAKNTVYLQMNSLKPEDTAVYYCAASYRKWNDYWGQGTQVTVSS | high polyreactivity
QVQLVESGGGLVQAGGSLRLSCAASGITFGDNAMGWYRQAPGKERELVAAISSGGSTDYADSVKGRFTISRDNAKNTVYLQMNSLNPEDTAVYYCAVDWVSVPEYDYWGQGTQVTVSS | low polyreactivity

The record that follows has no polyreactivity (PSR sort gate) shown yet.
Exam item: What does the data say about its polyreactivity (PSR sort gate)? Entry: `QVQLVESGGGLVQAGGSLRLSCAASGSTIGAYAMGWYRPAPGKERELVAAISRRGGSTYYADSVKGRFTISRDNAKNTVYLQMNSLKPEDSAVYYCNAVGTRVDGEHYYWGQGTQVTVSS`
Marked response: high polyreactivity

---

assay: yeast display, Sf9 membrane polyspecificity reagent, FACS + sequencing; frameworks hold sequencing errors
observationType: polyreactivity (PSR sort gate)

Some sequences with recorded polyreactivity (PSR sort gate):
seq | recordedValue
QLQLVESGGGLVQAGGSLRLSCAASGSTFVYYAMGWYRPAPGKERELVAGITSSGGSTYYADSVKGRFTISRDNAKNTVYLQMNSLKPEDTAVYYCAAYVWVQQGRYYYWGQGTQVTVSS | low polyreactivity
QVQLVESGGGLVQAGGSLGVSCAASGSTFRTYAMGWYRQAPGKERELVAAISQRGGSTYYADSVKGRFTISRDNAKNTVYLQMNSLTPEDSAVYYCAARYGVRYIYRMDYWGQGSQVTVSS | high polyreactivity
QVQLVESGGGLVQAGGSLRLSCAASGFTFYDYSMGWYRQAPGTERELVAASSDSGGITYYADSVKGRFTISRDNAKNTVYLQMNRLKPEDTAVYYCAADFATPGPEYDYWGQGTQVTVSS | low polyreactivity
QVQLVESGGGLVQAGGSLRLSSAASGIIFGGSAMGWYRQAPGKEWELVAAISRSGGSTYYADSVKGRFTISRDNPKKTVYLQMNSLKPEDTAVYYCNAVPRRKGFNYWGQGTQVTVSS | high polyreactivity
QVQLVESGGGLVQAGGSLRLRCAASGSTFGRYAKVWYRQAPGKEREFVAAISWSGGSTYYADSVKGRFTISRDNAKNTVYLQMNSLKPEDTAVYYCARYSWRGLAEFDSWGQGTQVTVSS | low polyreactivity

// input: 5 sequences below; output: polyreactivity (PSR sort gate) for each
1. QVQLVESGGGLVQAGGSLRLSCAASGNAMGWYRPAPGKERELVAAITRRGGSTYYADSVKGRFTISRDNAKNTVYLQMNSLKPEDSAVYYCAADNPSYNLWYGYWGLGTQVTVSS
2. QVQLVESGGGLVQAGGSLRLSCADSVFIFYLNAMGWYRQAPRKERELVATITNRGGSTYFADSVKGRFTISRDNAKNTVYLQMNSLKPEDTAVYYCAARTRERYSKPYFYRRFGYWGQGTQVTVSS
3. QVQLVESGGGLVQAGGSLRLSCAASGIIFIAYAMGWYRQAPGKERELVADISIGGSTNYADSVKGRFTISRDNAKNTVYLQMNSQKPEDTAVYYCNAGGGFYGSTVEHDYWGQGTQVTVSS
4. QVQLVESWGGLVQAGGSHRLSCDASGRIFTRNAMGWYRQAHGKERELVAAISYDCGSTYYADSVKVRFTISRDNAKNTVYLQMNSLKPEDTAVYYCATDLYLHGYEYWGQGTQVTVSS
5. QVQLVESGGGLVQAGGSLRLSCAASGSIFGSYAMGWYRQAPGKERELVAAISYRGGRTYYADSVKGRFTISRDNAKNTVYLQMNSLKPEDTAVYYCNARARNSPPYDYWGQGTQVTVSS

Marked response:
1. low polyreactivity
2. low polyreactivity
3. low polyreactivity
4. high polyreactivity
5. high polyreactivity
